test: Acute toxicity, single intragastric administration, Kerber method; details: mouse, in vivo, po; white outbred mice 20-22 g, single intragastric administration, Kerber method
Measurement Kind: LD50 (mg/kg)
Entry rule: numbers only, all in mg/kg.

Ask: Give the reported value of LD50 for this record: C=C(C)C1CC=C(C)C(O)C1O (stereo not shown)
Reply: 4250
